Molecular target: mu opiate receptor (MOR) (Rattus norvegicus)
Construct: from tissue; host or cells: striatum (membrane preparation)
Assay: MOR agonist activity using [35S]GTPgS binding assay in striatal membranes
Assay type: biochemical
Conditions: 1 μM compound as agonist; Series C-1 table
Reported MOR agonist activity ([35S]GTPgS binding to Gao) values follow for various molecules

Check out these entries, answers already filled in.
• CC(=O)c1ccc(S(=O)(=O)N2CCC3(CC2)NC(=O)CN3S(=O)(=O)c2ccc(C(C)=O)cc2)cc1 = 349.6%
• COc1ccc(S(=O)(=O)N2CCCC3(C2)OCCN3S(=O)(=O)c2ccc(OC)cc2)cc1 (stereo not shown) [Compound C0145M] = 289.2%

Record O=S(=O)(c1ccc(-c2ccccc2)cc1)N1CCC2(CC1)OCCN2S(=O)(=O)c1ccc(-c2ccccc2)cc1 , field MOR agonist activity ([35S]GTPgS binding to Gao): 307.0%

Record Cc1ccccc1S(=O)(=O)N1CCC2(CC1)OCCN2S(=O)(=O)c1ccccc1C , field MOR agonist activity ([35S]GTPgS binding to Gao): 204.7%

* * *

Molecular target: mu opiate receptor (MOR) (Rattus norvegicus)
Construct: from tissue; host or cells: striatum (membrane preparation)
Test: MOR agonist activity using [35S]GTPgS binding assay in striatal membranes
Assay type: biochemical
Details: 1 μM + BFNA; Series C-1 table
Would you mind labelling by MOR agonist activity ([35S]GTPgS binding to Gao)? At or over 20% is t, under is f.

Solved entries (count: 6):
- COc1ccc(C(=O)N2CCC3(CC2)OCCN3C(=O)c2ccc(OC)cc2)cc1: t
- O=C1CNC2(CCN(S(=O)(=O)c3ccc(O)cc3)CC2)N1Cc1ccccc1 [Compound C0148M]: t
- COc1ccc(S(=O)(=O)N2CCC3(CC2)OCCN3S(=O)(=O)c2ccc(OC)cc2)cc1: t
- Nc1ccc(C(=O)N2CCC3(CC2)OCCN3S(=O)(=O)c2ccc(N)cc2)cc1: t
- O=C(c1ccc([N+](=O)[O-])cc1)N1CCC2(CC1)OCCN2S(=O)(=O)c1ccc([N+](=O)[O-])cc1 [Compound C0022]: f
- O=S(=O)(c1ccc(OC(F)(F)F)cc1)N1CCC2(CC1)OCCN2S(=O)(=O)c1ccc(OC(F)(F)F)cc1: f

We now examine a further compound.
Problem: Say whether COc1ccc(NC(=O)N2CCC3(CC2)OCCN3C(=O)Nc2ccc(OC)cc2)cc1 [Compound C0151M] shows MOR agonist activity ([35S]GTPgS binding to Gao) of 20% or more.
Solution: t

* * *

Biological target: mu opiate receptor (MOR) (Rattus norvegicus, UniProt P33535)
Construct: from tissue; host or cells: striatum (membrane preparation)
Sequence (P33535 whole entry): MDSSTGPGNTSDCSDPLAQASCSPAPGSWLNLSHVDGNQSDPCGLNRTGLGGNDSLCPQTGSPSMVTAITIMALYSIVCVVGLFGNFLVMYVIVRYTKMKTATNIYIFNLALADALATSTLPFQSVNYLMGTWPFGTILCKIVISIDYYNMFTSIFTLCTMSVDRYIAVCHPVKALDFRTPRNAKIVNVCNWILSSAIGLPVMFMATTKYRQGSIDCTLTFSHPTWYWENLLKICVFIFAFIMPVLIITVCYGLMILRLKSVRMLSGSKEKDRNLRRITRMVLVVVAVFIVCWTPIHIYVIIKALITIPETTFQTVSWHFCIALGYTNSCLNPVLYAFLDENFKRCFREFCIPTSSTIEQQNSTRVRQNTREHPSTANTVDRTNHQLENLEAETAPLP
Test: MOR agonist activity using [35S]GTPgS binding assay in striatal membranes
Type: biochemical
Parameters: unit of the concentration uncertain
Settings: 1 (unit uncertain) compound as agonist; average of two runs
Would you mind labelling by MOR agonist activity (preliminary study)? At or over 200% is Y, under is N.

- O=S(=O)(c1ccc(OC(F)(F)F)cc1)N1CCOC12CCN(CC1CC1)CC2: N
- Cc1ccc(S(=O)(=O)N2CCOC23CCN(CC2CC2)CC3)cc1 [Compound C0134M]: Y

Problem: Say whether C=CCN1CCC2(CC1)OCCN2S(=O)(=O)c1ccc(C)cc1 shows MOR agonist activity (preliminary study) of 200% or more.
Solution: N

Problem: Say whether C[C@@H](NC(=O)[C@@H](N)Cc1ccc(O)cc1)C(=O)NCC(=O)N(C)[C@@H](Cc1ccccc1)C(=O)NCCO [DAMGO, [D-Ala2, N-MePhe4, Gly-ol]-enkephalin, reference compound] shows MOR agonist activity (preliminary study) of 200% or more.
Solution: Y

* * *

Reported MOR agonist activity ([35S]GTPgS binding to Gao) values follow for various compounds
Molecular target: mu opiate receptor (MOR) (Rattus norvegicus)
Construct: from tissue; host or cells: striatum (membrane preparation)
Assay: MOR agonist activity using [35S]GTPgS binding assay in striatal membranes
Assay type: biochemical
Conditions: 1 μM + BFNA; Series C-2 table
Procedure: To assess the mu opiate receptor (MOR) agonist activity of positive compounds from the FLNA screening, compounds were tested in a [^35S]GTPgS binding assay using striatal membranes. […] The immunocomplexes so formed were collected by incubation at 25° C. for 30 minutes with 40 ml of agarose-conjugated protein A/G beads and centrifugation at 5,000×g at 4° C. for 5 minutes. […] The radioactivity in the suspension was determined by liquid scintillation spectrometry. […]
Numeric answer only, unit % assumed.

* O=C1CN(C2CCc3ccccc3C2)C2(CCN(S(=O)(=O)c3ccccc3)CC2)N1 (stereo not drawn) [C0136M/ (P5)] | 74.5
* CCCCN1CCC2(CC1)OCCN2S(=O)(=O)c1ccc(OC)cc1 [Compound C0102M] | 150.4
* CC(=O)c1ccc(S(=O)(=O)N2CC(CN(C)C)OC23CCN(CC2CC2)CC3)cc1 (stereo not drawn) [Compound C0128M] | 63.9
* CS(=O)(=O)c1ccc(S(=O)(=O)N2CCOC23CCNCC3)cc1 [Compound C0116M] | 152.0
* O=[N+]([O-])c1ccc(S(=O)(=O)N2CCC3(CC2)NCCCO3)cc1 | 105.3

Summary: C=CCN1CCC2(CC1)OCCN2S(=O)(=O)c1ccc(OC)cc1 [Compound C0091M] , mu opiate receptor (MOR) (Rattus norvegicus), MOR agonist activity ([35S]GTPgS binding to Gao) = 80.8

Summary: COc1ccc(S(=O)(=O)N2CCSC23CCNCC3)cc1 , mu opiate receptor (MOR) (Rattus norvegicus), MOR agonist activity ([35S]GTPgS binding to Gao) = 56.2

Summary: Cc1ccc(S(=O)(=O)N2CCOC23CCN(CC2CC2)CC3)cc1 [Compound C0134M] , mu opiate receptor (MOR) (Rattus norvegicus), MOR agonist activity ([35S]GTPgS binding to Gao) = 46.6

Summary: CC(=O)c1ccc(S(=O)(=O)N2CCOC23CCN(CC(=O)O)CC3)cc1 [Compound C0100M] , mu opiate receptor (MOR) (Rattus norvegicus), MOR agonist activity ([35S]GTPgS binding to Gao) = 195.6

Summary: O=C1CN(Cc2ccccc2)C2(CCNCC2)N1 [Compound C0115M] , mu opiate receptor (MOR) (Rattus norvegicus), MOR agonist activity ([35S]GTPgS binding to Gao) = 118.4

* * *

Target: mu opiate receptor (MOR) (Rattus norvegicus, UniProt P33535)
Construct: from tissue; host or cells: striatum (membrane preparation)
Assay: MOR agonist activity using [35S]GTPgS binding assay in striatal membranes
Type: biochemical
Parameters: unit of the concentration uncertain
Details: 0.1 (unit uncertain) compound as agonist; average of two runs
Reported MOR agonist activity (preliminary study) values follow for various compounds
Numeric answer only, unit % assumed.

Check out these entries, answers already filled in.
• Cc1ccc(S(=O)(=O)N2CCOC23CCN(CC2CC2)CC3)cc1 [Compound C0134M] = 150.7
• C[C@@H](NC(=O)[C@@H](N)Cc1ccc(O)cc1)C(=O)NCC(=O)N(C)[C@@H](Cc1ccccc1)C(=O)NCCO [DAMGO, [D-Ala2, N-MePhe4, Gly-ol]-enkephalin, reference compound] = 144.7
• C=CCN1CCC2(CC1)OCCN2S(=O)(=O)c1ccc(C)cc1 [Compound 10] = 163.1
• O=S(=O)(c1ccc(OC(F)(F)F)cc1)N1CCOC12CCN(CC1CC1)CC2 [Compound 4] = 133.9

Record Cc1ccc(S(=O)(=O)N2CCOC23CCN(CC2CCC2)CC3)cc1 [Compound 9] , field MOR agonist activity (preliminary study): 156.6

* * *

Biological target: mu opiate receptor (MOR) (Rattus norvegicus, UniProt P33535)
Construct: from tissue; host or cells: striatum (membrane preparation)
Experiment: MOR agonist activity using [35S]GTPgS binding assay in striatal membranes
Format: biochemical
Conditions: 1 μM + BFNA; Series C-2 table
quantity_measured: MOR agonist activity ([35S]GTPgS binding to Gao) (%)
Numeric answer only, unit % assumed.

Check out these entries, answers already filled in.
• CN1CCC2(CC1)NCC(=O)N2Cc1ccccc1 [Compound C0105M] = 73.1
• CCc1ccc(S(=O)(=O)N2CCOC23CCN(CC2CC2)CC3)cc1 [Compound C0135M] = 113.3
• COc1ccc(S(=O)(=O)N2CCC3(CC2)NCCO3)cc1 [Compound C0026] = 21.2

Record CCOC(=O)CN1CCC2(CC1)OCCN2S(=O)(=O)c1ccc(C(C)=O)cc1 [Compound C0099M] , field MOR agonist activity ([35S]GTPgS binding to Gao): 114.7

Record CN1CCC2(CC1)NC(=O)CN2Cc1ccccc1 [Compound C0104M] , field MOR agonist activity ([35S]GTPgS binding to Gao): 143.8

Record C[C@@H](NC(=O)[C@@H](N)Cc1ccc(O)cc1)C(=O)NCC(=O)N(C)[C@@H](Cc1ccccc1)C(=O)NCCO [DAMGO, [D-Ala2, N-MePhe4, Gly-ol]-enkephalin, reference compound] , field MOR agonist activity ([35S]GTPgS binding to Gao): 53.2

Record COc1ccc(NC(=O)N2CCC3(CC2)NCCO3)cc1 [Compound C0151M-2] , field MOR agonist activity ([35S]GTPgS binding to Gao): 212.8

Record CC(=O)c1ccc(S(=O)(=O)N2CCC3(CC2)OCCN3S(=O)(=O)c2ccc(C(C)=O)cc2)cc1 [Compound C0011] , field MOR agonist activity ([35S]GTPgS binding to Gao): 19.0
